- METHOD SUMMARY: Half-life in dog at 0.5 mg/kg, iv
- Type: ADME, organism-based, Canis lupus familiaris
- TEST CONDITIONS: in vivo
REPORTED METRIC: half-life (h)
Numeric only. Scale: h

Entry CC#C[C@]1(O)CC[C@H]2[C@@H]3CCC4=CC(=O)CC[C@]4(C)[C@H]3[C@@H](c3ccc(N(C)C)cc3)C[C@@]21C : reported half-life = ? 16.2

====

- METHOD SUMMARY: Clearance in rat at 0.5 mg/kg, iv
- Type: ADME, organism-based
- TEST CONDITIONS: in vivo
REPORTED METRIC: clearance (mL/min/kg)
Numeric only. Scale: mL/min/kg

Entry CC#C[C@]1(O)CC[C@H]2[C@@H]3CCC4=CC(=O)CC[C@]4(C)[C@H]3[C@@H](c3ccc(N(C)C)cc3)C[C@@]21C : reported clearance = ? 51.7

====

- METHOD SUMMARY: Cmax in rat at 5 mg/kg, po
- Assay type: ADME, organism-based
- Set-up: dose 5 mg/kg, route oral
- TEST CONDITIONS: in vivo
REPORTED METRIC: Cmax (ng/mL)
Numeric only. Scale: ng/mL

Entry CC#C[C@]1(O)CC[C@H]2[C@@H]3CCC4=CC(=O)CC[C@]4(C)[C@H]3[C@@H](c3ccc(N(C)C)cc3)C[C@@]21C : reported Cmax = ? 518

====

- MEASURED ON: Progesterone receptor (Homo sapiens, UniProt P06401)
- Sequence (P06401 whole entry): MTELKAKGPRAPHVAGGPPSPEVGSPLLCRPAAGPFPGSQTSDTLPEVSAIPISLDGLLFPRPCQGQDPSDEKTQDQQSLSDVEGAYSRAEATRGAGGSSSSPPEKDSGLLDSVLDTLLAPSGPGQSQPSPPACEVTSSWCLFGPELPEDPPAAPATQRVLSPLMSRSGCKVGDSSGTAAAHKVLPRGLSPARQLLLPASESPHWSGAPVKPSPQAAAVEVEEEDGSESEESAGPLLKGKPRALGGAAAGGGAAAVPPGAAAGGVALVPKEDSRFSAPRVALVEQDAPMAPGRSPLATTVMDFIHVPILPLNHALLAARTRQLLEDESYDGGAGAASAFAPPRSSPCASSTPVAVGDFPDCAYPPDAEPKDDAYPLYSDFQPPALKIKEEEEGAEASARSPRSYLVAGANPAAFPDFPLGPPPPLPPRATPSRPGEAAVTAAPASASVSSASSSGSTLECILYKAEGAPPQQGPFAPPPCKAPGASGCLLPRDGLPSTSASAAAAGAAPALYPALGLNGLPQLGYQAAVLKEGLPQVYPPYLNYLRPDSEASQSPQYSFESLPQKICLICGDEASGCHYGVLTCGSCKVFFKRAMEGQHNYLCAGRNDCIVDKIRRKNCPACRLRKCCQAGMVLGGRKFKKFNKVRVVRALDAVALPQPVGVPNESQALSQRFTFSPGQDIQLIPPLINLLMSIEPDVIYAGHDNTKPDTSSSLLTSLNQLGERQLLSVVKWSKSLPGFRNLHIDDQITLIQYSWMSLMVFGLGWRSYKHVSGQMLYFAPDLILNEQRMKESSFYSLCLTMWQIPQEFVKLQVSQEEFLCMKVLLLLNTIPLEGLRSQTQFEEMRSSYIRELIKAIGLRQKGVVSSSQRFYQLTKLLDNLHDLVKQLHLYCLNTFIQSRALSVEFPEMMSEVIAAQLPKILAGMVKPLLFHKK
- METHOD SUMMARY: Antagonist activity at human progesterone receptor expressed in CHO-K1 cells harboring firefly luciferase gene after 20 hrs by One-Glo luciferase reporter gene assay
Here the recorded IC50 is given for each entry.
Numeric only. Scale: nM

Entry CN(C)c1ccc([C@H]2C[C@@]3(C)[C@@H](CC[C@@]3(O)C#CC3CC3)[C@@H]3CCC4=CC(=O)CC[C@]4(C)[C@H]32)cc1 : reported IC50 = ? 1490

Entry CCC#C[C@]1(O)CC[C@H]2[C@@H]3CCC4=CC(=O)CC[C@]4(C)[C@H]3[C@@H](c3ccc(N(C)C)cc3)C[C@@]21C : reported IC50 = ? 1550

Entry CC#C[C@]1(O)CC[C@H]2[C@@H]3CCC4=CC(=O)CC[C@]4(C)[C@H]3[C@@H](c3ccc(N4CCCC4)cc3)C[C@@]21C : reported IC50 = ? 4070
